So I've got a bunch of compounds here, and I need their melting point values.

melting point reading for CCc1nc2c(N)nc3cc(OCc4ccc(C(F)(F)F)o4)ccc3c2s1 : 152 to 154 °C

melting point reading for CC(C)CNS(=O)(=O)c1cccc(NC(=O)c2cnn3c(C(F)F)cc(-c4ccc(C(F)(F)F)cc4)nc23)c1 : 186 °C

melting point reading for CC(C)Cn1c(COc2ccccc2)nc2c(N)nc3ccccc3c21 : 196 to 197 °C

melting point reading for O=C(Nc1ccc(O)cc1)Nn1cnc2ccccc2c1=O : 220 to 223 °C

melting point reading for CCNC(=O)n1oc2ccccc2c1=O : 112 to 113 °C

melting point reading for C#CCOc1cc(-n2nnn(CC)c2=O)c(Cl)cc1F : 88 to 89 °C

melting point reading for COc1cccc(COCCC(C(=O)O)c2ccccc2)c1 (stereo not given) : 112 to 114 °C

melting point reading for COC(=O)N1Cc2ccccc2C(c2ccccc2Cl)c2ccccc21 (stereo not given) : 159 to 161 °C

melting point reading for Oc1nc2ccc3nonc3c2nc1O : > 300 °C

melting point reading for CCCCCCCCN1C(=O)C2C3CCC(O3)C2C1=O (stereo not given) : 36 to 37 °C
